# credit: the Human Domainome abundance scans (Beltran et al. 2025)

B1: Homeobox protein SIX6, residues 134 to 184; numbered along this chain, O95475 (parent)
chain: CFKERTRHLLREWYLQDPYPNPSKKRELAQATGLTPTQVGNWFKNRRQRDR

# Variants of: B1
# experiment_description: abundance fitness (aPCA) (normalised: wild type 0, dead -1); higher = more abundant; growth selection in yeast, the domain comes from the species named
# protocol_conditions: Homo sapiens
Rule: abundance fitness under -0.3 gives Condition not met, otherwise Condition met.

Consider the following illustrative entries.
{"columns": ["variant_description", "class_name"],
 "data": [
  ["T37E", "Condition met"],
  ["T37P", "Condition not met"],
  ["G33K", "Condition not met"],
  ["K25Y", "Condition not met"]
]}

hey, is abundance fitness for this one >= -0.3? R46F
Condition not met

Answer whether abundance fitness of N21D is greater than or equal to -0.3.
Condition met

Is the recorded value of abundance fitness equal to or greater than -0.3 for this variant? T37Q
Condition met

Could you tell me if the measured abundance fitness of Y19G reaches -0.3 or more?
Condition not met
